Method Description: Toxicity test in mice, 100 mg/kg intraperitoneal
Parameters: species or system souris
Experimental Conditions: mouse, in vivo, ip, 100 mg/kg i.p., read-out: Toxicité à 100 mg/kg i.p. % mortalité à 48 h
Assay Endpoint: mortality at 48 h (%)
Answers are plain numbers, in %.

Compound	mortality at 48 h (%)
CC1CC(C)CN(C2(c3cc4ccccc4s3)CCCCC2)C1 (centres unmarked)	10
BrCC1CCCN(C2(c3cc4ccccc4s3)CCCCC2)C1 (centres unmarked)	0
C[C@H]1CC[C@](c2cc3ccccc3s2)(N2CCCCC2)CC1	0
c1ccc2oc(C3(N4CCCCC4)CCCCC3)cc2c1	10
CC1CCCN(C2(c3cc4ccccc4s3)CCCCC2)C1 (centres unmarked)	10

Could you report mortality at 48 h for every entry in the following list?
1. c1ccc2sc(C3(N4CCCCC4)CCCCC3)cc2c1 [BTCP, reference compound]
2. C[C@H]1CC[C@@](c2cc3ccccc3s2)(N2CCCCC2)CC1
3. CCCN(CCC)C1(c2cc3ccccc3s2)CCCCC1

## Result
[0, 0, 0]
